Overview of reported Kd across a group of compounds:
# measurement-target: NgcE^Sco (SCO6005) (Streptomyces coelicolor)
# Construct: without putative signal peptide (29 N-terminal residues); from E. coli
# Sequence (O50499 30-469): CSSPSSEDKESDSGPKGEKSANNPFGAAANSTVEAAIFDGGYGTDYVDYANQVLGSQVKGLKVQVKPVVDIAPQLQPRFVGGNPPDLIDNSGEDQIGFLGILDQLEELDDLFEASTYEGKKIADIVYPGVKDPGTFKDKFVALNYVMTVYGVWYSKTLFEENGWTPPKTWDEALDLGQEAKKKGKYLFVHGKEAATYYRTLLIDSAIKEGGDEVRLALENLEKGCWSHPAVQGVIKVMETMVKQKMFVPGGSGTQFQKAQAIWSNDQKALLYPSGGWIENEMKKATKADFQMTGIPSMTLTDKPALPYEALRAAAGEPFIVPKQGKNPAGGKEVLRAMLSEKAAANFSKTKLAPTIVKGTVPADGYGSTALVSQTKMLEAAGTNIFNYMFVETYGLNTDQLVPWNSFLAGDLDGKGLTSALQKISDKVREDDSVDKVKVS
# method-notes: isothermal titration calorimetry
# Assay type: binding
# cond: 20 mM Tris/HCl pH 8.0, 30°C; single-site fit

compound: CC(=O)N[C@H]1C(O)O[C@H](CO)[C@@H](O)[C@@H]1O (some centres unmarked)
Kd [µM]: 1.15
//
compound: CC(=O)N[C@H]1[C@H](O[C@H]2[C@H](O)[C@@H](NC(C)=O)C(O)O[C@@H]2CO)O[C@H](CO)[C@@H](O)[C@@H]1O (some centres unmarked)
Kd [µM]: 1.53

Attribution: paper PMC6167110
